Recorded values, source PubChem BioAssay AID1159580.

# protocol_text: chemical genetic growth profiling, strain panel (AID 1159580);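 note: tested at 20 µM; growth read once vehicle control cultures reached saturation at 30 °C; 1 = growth at the plate median or of vehicle wells; lower values mean less growth of the strain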
# test_context: S. cerevisiae deletion strains, growth OD, locus YKL048C, strain ELM1
Among all 5,500 compounds or so, about 2,000 (36%) were called active. Roughly 18% stayed inconclusive and do not appear here. Cut-off read from the data, not from the text of the source: active = normalized growth mostly below about 0.91 (no sharp cut-off); inconclusive = no clear call, values can overlap the other calls; inactive = mostly above about 0.92. This is one part of the list.
Classes used: 1 (yes) for active, 0 (no) for inactive

- compound: "O=C(O/N=C1/CCCc2[nH]c3ccccc3c21)C1CCCCC1"
  class_assignment: "0 (no)"
- compound: "CCCCCCCCCCCCSc1ncn[nH]1"
  class_assignment: "0 (no)"
- compound: "O=C1Nc2ccccc2/C1=C\\c1cccc2ccccc12"
  class_assignment: "0 (no)"
- compound: "CC(C)(C)NC(=S)N/N=C\\c1cc(Br)c(O)c(Br)c1"
  class_assignment: "0 (no)"
- compound: "CN1/C(=C/C=C/c2ccc3ccccc3[n+]2C)C=Cc2ccccc21"
  class_assignment: "1 (yes)"
- compound: "O=C1/C(=C/c2c[nH]c3ccccc23)CSc2ccccc21"
  class_assignment: "0 (no)"
- compound: "O=C1Nc2ccccc2/C1=C\\c1c[nH]c2ccccc12"
  class_assignment: "1 (yes)"
- compound: "CO/N=C1/CC(C)(C)Cc2c(-c3ccn(C(=O)Nc4cccc(Cl)c4)n3)sc(SC)c21"
  class_assignment: "0 (no)"
- compound: "N/C(=N/OC(=O)Nc1cccc(C(F)(F)F)c1)c1ccc(OC(F)(F)F)cc1"
  class_assignment: "0 (no)"
- compound: "O=C(Nc1ccccc1C(=O)O)OCC1c2ccccc2-c2ccccc21"
  class_assignment: "1 (yes)"
- compound: "O=c1cc(CSc2ccc(Cl)cc2)c2ccc(O)cc2o1"
  class_assignment: "1 (yes)"
- compound: "O=S(=O)(Nc1ccccc1Sc1c(Cl)cncc1Cl)c1ccc(Cl)cc1"
  class_assignment: "0 (no)"
- compound: "CCOC(=O)NC(=S)Nc1ccc(C(C)(C)C)cc1NC(=S)NC(=O)OCC"
  class_assignment: "0 (no)"
- compound: "N#C/C(N=Cc1cc(Cl)cc(Cl)c1O)=C(\\C#N)N=Cc1cc(Cl)cc(Cl)c1O"
  class_assignment: "1 (yes)"
- compound: "N#Cc1nccnc1N1CCN(C(=O)Nc2cc(Cl)cc(Cl)c2)CC1"
  class_assignment: "0 (no)"
- compound: "Cc1cc(-c2onc(C)c2C(=O)Sc2ccccc2)no1"
  class_assignment: "0 (no)"
- compound: "COC(=O)/C=C1/OC(c2ccc(OC)cc2)=CC1=O"
  class_assignment: "1 (yes)"
- compound: "CC(C)/C(=N/OC(=O)c1ccc([N+](=O)[O-])cc1)c1ccccc1"
  class_assignment: "0 (no)"
- compound: "ONC(=Nc1ccccc1Cl)c1ccccc1Cl"
  class_assignment: "0 (no)"
- compound: "O=C(O/N=C1/CCCc2[nH]c3ccccc3c21)c1ccc(Cl)cc1Cl"
  class_assignment: "0 (no)"
- compound: "O=S(=O)(c1cc(Cl)ccc1Cl)N1CCc2ccccc2C1"
  class_assignment: "0 (no)"
- compound: "FC(F)(F)Sc1ccc(OCc2n[nH]c(=S)n2-c2ccccc2)cc1"
  class_assignment: "0 (no)"
- compound: "OC(COCc1ccccc1)Cn1c2ccccc2c2ccccc21 (configuration not stated)"
  class_assignment: "0 (no)"
- compound: "CC1(C)C=Cc2cc(/C(N)=N\\OC(=O)Nc3cccc(C(F)(F)F)c3)ccc2O1"
  class_assignment: "0 (no)"
- compound: "CN(C)/C=C1\\CSc2ccc(Cl)cc2C1=O"
  class_assignment: "0 (no)"
- compound: "Cc1ccc(OS(=O)(=O)c2c(Cl)sc(Cl)c2Br)c([N+](=O)[O-])n1"
  class_assignment: "0 (no)"
- compound: "COc1ccc(N=C2SCC(c3ccc(C)cc3)=NN2CCO)cc1"
  class_assignment: "0 (no)"
